Where these numbers come from: PubChem BioAssay AID1159580

- EXPERIMENT: chemical genetic growth profiling, strain panel (AID 1159580);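 also: tested at 20 µM; growth read once vehicle control cultures reached saturation at 30 °C; lower values mean less growth of the strain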
- ASSAY_SETUP: S. cerevisiae deletion strains, growth OD, locus YMR263W, strain SAP30
The campaign covered roughly 5,500 compounds. About 2,000 (36%) were called active. Not shown: some 18% with an inconclusive outcome. Rule as the data show it: active = normalized growth mostly below about 0.91 (no sharp cut-off); inconclusive = no clear call, values can overlap the other calls; inactive = mostly above about 0.92. Some of the results follow.
Allowed answers: active, inactive

Examples from the recorded data:
[
  {
    "MOLECULE": "CC(C)C[C@H](NC(=O)C1OC1C(=O)O)C(=O)NCCCCN=C(N)N (some centres not stated)",
    "LABEL_VALUE": "inactive"
  },
  {
    "MOLECULE": "Clc1ccc(Cl)cc1",
    "LABEL_VALUE": "inactive"
  },
  {
    "MOLECULE": "NCC(=O)CCC(=O)O",
    "LABEL_VALUE": "inactive"
  },
  {
    "MOLECULE": "O=C(/C=C/c1ccccc1)c1ccc(O)cc1",
    "LABEL_VALUE": "active"
  },
  {
    "MOLECULE": "CC(C)(C)C(=O)N1CCN(c2ncccc2C(F)(F)F)CC1",
    "LABEL_VALUE": "inactive"
  },
  {
    "MOLECULE": "Clc1ccc(-c2csc(-c3ccno3)n2)s1",
    "LABEL_VALUE": "inactive"
  }
]

stdin: Identify the outcome logged in this assay for the molecule shown: Clc1cccc(-c2csc(Nc3cccnc3)n2)c1
stdout: inactive

stdin: Identify the outcome logged in this assay for the molecule shown: CC(=O)O[C@H]1C[C@@]2(C)[C@H](c3ccoc3)OC(=O)[C@H]3O[C@]32[C@@]2(C)C1[C@]1(C)C(C[C@H]2OC(C)=O)C(C)(C)[C@H](OC(C)=O)C[C@@H]1OC(C)=O (some centres not stated)
stdout: inactive

stdin: Identify the outcome logged in this assay for the molecule shown: Cc1cc(=O)c2c(O)c3c(cc2o1)OC(C)(C)CC3
stdout: inactive

stdin: Identify the outcome logged in this assay for the molecule shown: Cc1onc(-c2c(Cl)cccc2Cl)c1C(=O)N1CCN(c2ncccc2C(F)(F)F)CC1
stdout: inactive

stdin: Identify the outcome logged in this assay for the molecule shown: COc1c(O)cc2c(-c3ccccc3)cc(=O)oc2c1OC
stdout: inactive

stdin: Identify the outcome logged in this assay for the molecule shown: Cc1cc2cc3c(C)cc(=O)oc3c(C)c2o1
stdout: inactive

stdin: Identify the outcome logged in this assay for the molecule shown: O=C(Nc1ccccc1SCc1cccc(C(F)(F)F)c1)c1c(F)cccc1Cl
stdout: inactive

stdin: Identify the outcome logged in this assay for the molecule shown: COc1cccc(-c2cc(=O)c3ccc(OC)cc3o2)c1
stdout: inactive

stdin: Identify the outcome logged in this assay for the molecule shown: Cc1c(C)c(C)c(CO)c(C)c1C
stdout: inactive

stdin: Identify the outcome logged in this assay for the molecule shown: CSc1ccc2c(c1)C(N1CCN(C)CC1)Cc1ccccc1S2 (configuration not stated)
stdout: inactive

stdin: Identify the outcome logged in this assay for the molecule shown: Cc1cc(=O)c2c(o1)-c1c(cc(O)c(O)c1C(=O)O)OC2
stdout: inactive
